# tgt: Nonstructural protein 3 (Zika virus, UniProt A0A024AXB9)
# Sequence (A0A024AXB9 whole entry): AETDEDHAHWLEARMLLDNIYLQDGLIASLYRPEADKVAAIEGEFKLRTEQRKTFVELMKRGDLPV
# protocol.description: Functional biochemical assay to identify treatments for viral infectious disease that targets Zika NS2B-NS3 protease. Utilizing a direct enzyme activity measurement method, reading the fluorescence intensity is used to characterize the relative potency of inhibitors as IC50.
# Set-up: species or system PRVABC59
pIC50: −log10 of the molar value.
assay.readout: pIC50

# example entries with known answers
NCc1cc(Cl)cc(C(=O)Nc2cc([C@H]3CCOC3)ccn2)c1 :: < 4.60
CCc1ncc(CN2CCC(c3nc4ccccc4s3)CC2)[nH]1 :: < 4.00
Cc1cc(NC(=O)c2cc(C3CC3)n(C)c2C)ccc1OC1CCOCC1 :: < 4.60
O=C(Nc1cc(Cl)cc([C@H]2[C@H](CO)[C@@H]2c2cccc(-c3nn[nH]n3)c2)c1)OCc1ccccc1 :: 4.08
O=C([C@H](Nc1ccc2c(c1)CNC2)c1cc(Cl)cc(C2CC2)c1)N1CCOCC1 :: 6.40
C=CC[C@H](Nc1cc([C@H]2CCOC2)ccn1)c1cc(C2CC2)n(C)n1 :: < 4.60
CNc1c(-c2cc(Cl)cc(C3CC3)c2)nc2cc(C(=O)O)ccn12 :: < 4.00
NCc1cccc(NC(=O)[C@@H](NC(=O)OCc2ccccc2)c2ccc(-c3ccc(N)nc3)cc2)c1 :: 4.14

Need pIC50 for each of these compounds.
1. O=C(O)c1nc(Cc2c[nH]c3ccc(Cl)cc23)c2ccccn12
2. O=C1Cc2c(cccc2C(=O)Nc2ccc3c(c2)CNCCC3)N1
3. O=C1CCc2c(cc(Cl)cc2-c2ccc3[nH]c(C(=O)O)cc3c2)N1
4. CC(C)(C)c1ccc(Cl)cc1C(=O)Nc1ccc2c(c1)CNC2

1. < 4.00
2. 6.24
3. < 4.00
4. 5.61

Working through the 2 compounds below one at a time, give pIC50 for each.
1. Cc1cc(C(=O)Nc2cccc(CN)c2)n2nc(C(F)(F)F)cc2n1
2. N[C@H]1CCCc2ccc(NC(=O)c3cc(Cl)cc4[nH]ncc34)cc21

1. < 4.00
2. 5.53

----------
# tgt: UniProt:A0A024AXB9
# protocol.description: Functional biochemical assay to identify treatments for viral infectious disease that targets Zika NS2B-NS3 protease. Utilizing a direct enzyme activity measurement method, reading the fluorescence intensity is used to characterize the relative potency of inhibitors as IC50.
# Parameters: species or system PRVABC59
assay.readout: IC50

Consider the reported IC50 for these molecules:
NCc1cccc(NC(=O)c2c(C(F)(F)F)nc3n2CCCC3)c1 :: > 99.5 µM
Cn1cc2cc(C#N)cc(-c3ccc4[nH]c(C(=O)O)cc4c3)c2n1 :: > 25 µM
O=C(O)c1cc(Cl)ccc1NS(=O)(=O)c1ccc(-c2cn[nH]c2)cc1 :: > 99.5 µM
O=c1[nH]c2cccc(N3CCN(Cc4c[nH]c5ccccc45)CC3)c2o1 :: > 99.5 µM
O=c1c2ccccc2ncn1CCCn1cnc2ccccc2c1=O :: > 99.5 µM

Now examine the next entry.
Query O=C(O)Cc1cc(NS(=O)(=O)c2ccc(Oc3ccccc3Cl)cc2)ccc1Cl on UniProt:A0A024AXB9; IC50 returned: > 99.5 µM

----------
# tgt: Nonstructural protein 3 (Zika virus)
# protocol.description: Functional biochemical assay to identify treatments for viral infectious disease that targets Zika NS2B-NS3 protease. Utilizing a direct enzyme activity measurement method, reading the fluorescence intensity is used to characterize the relative potency of inhibitors as IC50.
# Design: species or system PRVABC59
pIC50: −log10 of the molar value.
assay.readout: pIC50

Some compounds with recorded pIC50:
O=C(O)c1cc(Cl)ccc1S(=O)(=O)Nc1ccc(S(=O)(=O)Nc2ccccc2)cc1 :: < 4.00
COC(=O)c1cc(Cl)ccc1NS(=O)(=O)c1ccc(Cl)nc1 :: < 4.00
NCc1cccc(NC(=O)[C@H]2CCOC3(CCC3)C2)c1 :: < 4.00
CC[C@H]1CCN(C(=O)c2cc(Cl)ccc2NS(=O)(=O)c2ccc(Oc3ccccc3Cl)cc2)C1 :: < 4.00

So, O=C(Nc1ccc2c(c1)CNC2)c1nc(Cl)nc2[nH]ccc12 ? Its pIC50 was < 4.60
